These entries and their values trace back to ChEMBL document CHEMBL1781977.

- Target Or System: UniProt P18031
- Sequence (P18031 whole entry): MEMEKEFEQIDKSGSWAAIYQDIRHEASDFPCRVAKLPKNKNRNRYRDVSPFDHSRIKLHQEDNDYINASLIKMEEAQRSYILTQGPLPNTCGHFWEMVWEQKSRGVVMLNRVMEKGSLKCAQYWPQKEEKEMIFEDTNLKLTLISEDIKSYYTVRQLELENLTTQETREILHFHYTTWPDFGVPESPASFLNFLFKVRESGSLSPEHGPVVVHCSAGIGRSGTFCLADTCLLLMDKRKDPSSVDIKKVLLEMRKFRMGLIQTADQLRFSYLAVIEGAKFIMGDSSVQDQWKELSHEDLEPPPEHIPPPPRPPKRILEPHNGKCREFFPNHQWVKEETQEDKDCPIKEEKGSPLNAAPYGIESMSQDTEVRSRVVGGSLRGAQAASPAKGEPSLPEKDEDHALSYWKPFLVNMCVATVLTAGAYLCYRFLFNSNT
- Procedure Summary: Inhibition of protein tyrosine phosphatase-1B at 10 uM incubated for 10 mins using pNPP substrate by modified Goldstein method
Measured Property: inhibition (%)

Worked cases, answers included:
- Line Notation: "COc1ccc(-c2cc(-c3ccccc3)no2)c(OCCN2CCCCC2)c1"
  Observed Result: 76.3
- Line Notation: "COc1ccc(-c2cc(-c3ccccc3)no2)c(OCCCN2CCCC2)c1"
  Observed Result: 82.7

I = COc1ccc(-c2cc(-c3ccccc3)no2)c(OCCCN2CCCCC2)c1
II = COc1ccc(-c2cc(-c3ccccc3)no2)c(OCCCN(C)C)c1
Of I and II , which shows the smaller inhibition value? Pick one; state its label.
II
(II: 22.3%, I: 89.5%)
